- Test system: TTR
- test.description: TTR editing in primary human hepatocytes transfected with Spy Cas9 protein and sgRNAs (Table 12)
- Format: cell-based
- test.settings: primary human hepatocytes transfected with Spy Cas9 protein (RNP) and sgRNAs
- Experimental: Primary liver hepatocytes. Primary human liver hepatocytes (PHH) and primary cynomolgus liver hepatocytes (PCH) (Gibco) were cultured per the manufacturer's protocol (Invitrogen, protocol 11.28.2012). […] Cells were counted and plated on Bio-coat collagen I coated 96-well plates (ThermoFisher, Cat. 877272) at a density of 33,000 cells/well for human or 60,000 cells/well for cyno (or 65,000 cells/well when assaying effects on TTR protein, described further below). […]
Strand notation (5' to 3'): a small letter for the sugar, then the base; units joined by * are phosphorothioate-linked, units joined directly phosphodiester-linked; [ ] holds rarer units or linkages, { } end groups; capitals alone tell only the bases. m = 2'-O-methyl; r = 2'-OH (RNA)
// reported Avg % Insert per item

molecule	Avg % Insert, %
G000499: TTR sgRNA modified sequence, Human, SEQ ID No. 106; guide sequence of CR005303 (nucleic acid) guide: mU*mG*mA*rArUrCrCrArArGrUrGrUrCrCrUrCrUrGrArGrUrUrUrUrArGrAmGmCmUmAmGmAmAmAmUmAmGmCrArArGrUrUrArArArArUrArArGrGrCrUrArGrUrCrCrGrUrUrArUrCrAmAmCmUmUmGmAmAmAmAmAmGmUmGmGmCmAmCmCmGmAmGmUmCmGmGmUmGmCmU*mU*mU*mU	65.23
G000482: TTR sgRNA modified sequence, Human, SEQ ID No. 89; guide sequence of CR003365 (nucleic acid) guide: mU*mG*mU*rArGrArArGrGrGrArUrArUrArCrArArArGrGrUrUrUrUrArGrAmGmCmUmAmGmAmAmAmUmAmGmCrArArGrUrUrArArArArUrArArGrGrCrUrArGrUrCrCrGrUrUrArUrCrAmAmCmUmUmGmAmAmAmAmAmGmUmGmGmCmAmCmCmGmAmGmUmCmGmGmUmGmCmU*mU*mU*mU	56.57
G000497: TTR sgRNA modified sequence, Human, SEQ ID No. 104; guide sequence of CR003335 (nucleic acid) guide: mC*mU*mG*rCrUrCrCrUrCrCrUrCrUrGrCrCrUrUrGrCrGrUrUrUrUrArGrAmGmCmUmAmGmAmAmAmUmAmGmCrArArGrUrUrArArArArUrArArGrGrCrUrArGrUrCrCrGrUrUrArUrCrAmAmCmUmUmGmAmAmAmAmAmGmUmGmGmCmAmCmCmGmAmGmUmCmGmGmUmGmCmU*mU*mU*mU	51.10
G000480: TTR sgRNA modified sequence, Human, SEQ ID No. 87; guide sequence of CR003353 (nucleic acid) guide: mA*mA*mA*rGrGrCrUrGrCrUrGrArUrGrArCrArCrCrUrGrUrUrUrUrArGrAmGmCmUmAmGmAmAmAmUmAmGmCrArArGrUrUrArArArArUrArArGrGrCrUrArGrUrCrCrGrUrUrArUrCrAmAmCmUmUmGmAmAmAmAmAmGmUmGmGmCmAmCmCmGmAmGmUmCmGmGmUmGmCmU*mU*mU*mU	77.15
G000486: TTR sgRNA modified sequence, Human, SEQ ID No. 93; guide sequence of CR003339 (nucleic acid) guide: mA*mC*mA*rCrArArArUrArCrCrArGrUrCrCrArGrCrArGrUrUrUrUrArGrAmGmCmUmAmGmAmAmAmUmAmGmCrArArGrUrUrArArArArUrArArGrGrCrUrArGrUrCrCrGrUrUrArUrCrAmAmCmUmUmGmAmAmAmAmAmGmUmGmGmCmAmCmCmGmAmGmUmCmGmGmUmGmCmU*mU*mU*mU	9.83
G000490: TTR sgRNA modified sequence, Human, SEQ ID No. 97; guide sequence of CR003366 (nucleic acid) guide: mA*mA*mA*rUrArGrArCrArCrCrArArArUrCrUrUrArCrGrUrUrUrUrArGrAmGmCmUmAmGmAmAmAmUmAmGmCrArArGrUrUrArArArArUrArArGrGrCrUrArGrUrCrCrGrUrUrArUrCrAmAmCmUmUmGmAmAmAmAmAmGmUmGmGmCmAmCmCmGmAmGmUmCmGmGmUmGmCmU*mU*mU*mU	46.13

Provenance of the data: patent US11795460B2
